System: 786-0 renal
Assay: NCI-60 one-dose screen, 48 h (100 = growth as untreated, 0 = no growth, -100 = all killed)
Test conditions: 10 µM unless noted
Protocol: Cells are grown in 96 well plates and exposed to the test compound for 48 hours. Compounds are tested at a single concentration, which is 10^-5 M for most compounds. The reported endpoint is percent growth (GI% or GIPRCNT), where numbers from 0 - 100% represent growth inhibition, and numbers from -100% - 0 represent cell death. For example, a value of 40 represents 60% growth inhibition. A value of 0 means no net growth occurred over the course of the experiment. […]
The panel holds about 83,000 compounds, 20% with a hit somewhere; the sample as a whole holds those more often.
As shown below, each of these compounds has a reported growth value.
Give just the number in %; leave the unit off.

Recorded growth, per entry:
CCC1C(=O)COC1=O (configuration not stated); 101
COc1cc(OC)c2c(c1)c1nc3cc(C)c(C)cc3nc1n2CCN(C)C; 83.9
CC(C)(C)c1ccc(OCCCCCCCN2CCNCC2)cc1; 23.9
N#C/C(=C\c1ccc(-c2ccc(F)cc2)o1)c1nc(-c2ccco2)cs1; 109
COC(c1ccccc1)(c1ccccc1)c1ccccc1; 93

Query: Name the recorded growth for O=C1c2cc3c(cc2-c2c1c1ccc(F)cc1c(=O)n2CCCN1CCOCC1)OCO3 .
Reply: 24.1

Query: What does the data say about its growth? Entry: [B-][N+](CC)(CC)c1ccccc1
Reply: 105

====

Tested on: A498 renal
Assay: NCI-60 one-dose screen, 48 h (100 = growth as untreated, 0 = no growth, -100 = all killed)
Test conditions: 10 µM unless noted
About 83,000 compounds went through this panel and 20% of them were active in at least one assay; those are over-represented in the sample as a whole.
# strict inequality: growth < 50% yields yes, everything else yields no

Example entries begin here.
Cn1cc(-c2csc(-c3cn(CCNC(=O)OC(C)(C)C)c4ccc(F)cc34)n2)c2cccnc21; no
CC[C@H](CC[C@@H](C)[C@H]1CC[C@H]2[C@@H]3/C(=C/c4cccnc4)C(=O)C4=CC(=O)CC[C@]4(C)[C@H]3CC[C@]12C)C(C)C; no
COc1ccc(-c2cc(/C=C/C(=O)c3ccc(OC)c(OC)c3)[nH]n2)cc1; yes
CC(C)(C)c1ccc(OCCCCCCCN2CCNCC2)cc1; no
COc1cnc2c(c1)C(=O)c1c-2n(CCCNC(C)C)c(=O)c2cc([N+](=O)[O-])ccc12; yes

Query: Field: below-cutoff. Rule: recorded growth strictly less than 50%. Subject: COc1ccc(-c2cc(-c3c(C)oc4cc5occc5c(OC)c4c3=O)nc(N)c2C#N)cc1OC
Reply: yes

Query: Please check: growth for C/C(Cc1ccc(Cl)cc1)=C(/c1ccc(Cl)cc1)c1ccc(OCCN2CCCC2)cc1 , strictly under 50% or not?
Reply: no

Query: Please indicate whether the reported growth of O=C(NCN1C(=O)c2cccc3cccc(c23)C1=O)N1CCC(Cc2ccccc2)CC1 is strictly below 50%.
Reply: yes

Query: Is growth strictly under 50% for the entry C=CC(=O)N[C@H](Cc1ccc(-c2cc(Cl)cc(Cl)c2)cc1)[C@H](O)[C@@H](O)C(=O)O ?
Reply: no

Query: Is the reported growth for CCCCCCCC(=O)SCC/C=C/[C@@H]1CC(=O)NCc2cccc(n2)CN(Cc2ccc(Cl)cc2)CC(=O)N[C@@H](C(C)C)C(=O)O1 strictly below 50%?
Reply: yes

Query: Problem: For the compound C/C(=N\Nc1ccc2ccccc2n1)c1ccccn1 , is growth under 50%?
Reply: yes

Query: Please state whether growth is below 50% for COc1c(N)c2c(c([N+](=O)[O-])c1OC)C(=O)OC2
Reply: no

Query: Dear reviewer, please state whether C[C@@H](Oc1ccc(C(=O)NS(=O)(=O)C(C)(C)C)cc1C(F)(F)F)c1ccc(Oc2ccccc2)cn1 has growth strictly beneath 50%.
Reply: yes

Query: Lab note: confirm whether the reported growth for this compound is below 50%, equality not counting. compound: COc1cc2c(cc1-c1c(C)noc1C)ncc1nc(C3CC3)n([C@H](C)COC(F)F)c12
Reply: yes

Query: I'd appreciate it if you could check whether O=C(NC(Cc1cn(Cc2ccccc2)cn1)C(=O)O)OCC1c2ccccc2-c2ccccc21 (stereo unspecified) has growth smaller than 50%.
Reply: no

Query: Below 50% on growth? Entry NCCn1cc(-c2nc(-c3c[nH]c4ncccc34)cs2)c2cc(F)ccc21
Reply: no

Query: Quick check: does O=C1C=C(C(O)c2ccc(O)cc2)C(=O)c2ccccc21 (stereo unspecified) have growth under 50%?
Reply: no

Query: Does the reported growth of COc1ccc(C(=O)c2ccc(C)cc2)c(OC)c1OC stay below 50%?
Reply: no

Query: Does the reported growth of CC(C)(C)c1nc(-c2ccc(O)c(O)c2)cs1 stay below 50%?
Reply: no

Query: For Cc1ccnc2c(OCc3ccccc3)cccc12 , is the recorded growth below the cut-off of 50%?
Reply: no

Query: growth under 50%? Item: O=C1c2ccccc2NC(c2cn(-c3ccccc3)nc2-c2cccs2)N1Cc1ccccc1 (stereo unspecified)
Reply: no

Query: # TODO verify growth < 50% strictly for this compound: C=C(C)[C@@H]1CC[C@]2(C(=O)NNC(=O)c3cccnc3)CC[C@]3(C)[C@H](CC[C@@H]4[C@@]5(C)CCCNC(C)(C)[C@@H]5CC[C@]43C)[C@@H]12
Reply: no

Query: For this compound, is growth lower than 50%? C/C(=N\Nc1cc(C)c2ccccc2n1)c1ccccn1
Reply: yes

Query: Hi there! Is growth for COc1cc2nc(Cl)nc(Nc3cccc(C(=O)/C=C/c4ccc(F)cc4)c3)c2cc1OC below 50%, do you know?
Reply: no
